Where do these numbers come from? They come from PubChem BioAssay AID2599.

- Assayed target: Sentrin-specific protease 6 (Homo sapiens) (UniProt Q9GZR1)
- Sequence (Q9GZR1 628-1112 limits assumed): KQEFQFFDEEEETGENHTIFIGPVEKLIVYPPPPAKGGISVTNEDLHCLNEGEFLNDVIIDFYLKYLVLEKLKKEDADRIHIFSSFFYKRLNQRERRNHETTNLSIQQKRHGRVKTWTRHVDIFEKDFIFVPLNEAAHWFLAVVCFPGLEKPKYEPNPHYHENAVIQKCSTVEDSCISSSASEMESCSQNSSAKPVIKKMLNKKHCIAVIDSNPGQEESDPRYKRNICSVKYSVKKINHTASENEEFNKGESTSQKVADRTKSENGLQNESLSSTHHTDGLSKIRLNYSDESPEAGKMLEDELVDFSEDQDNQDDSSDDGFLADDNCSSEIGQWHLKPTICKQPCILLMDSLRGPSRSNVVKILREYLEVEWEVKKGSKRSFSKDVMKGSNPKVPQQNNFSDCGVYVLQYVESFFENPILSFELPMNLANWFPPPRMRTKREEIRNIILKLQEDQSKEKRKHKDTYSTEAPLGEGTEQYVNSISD
- Test protocol: SENP6 protease inhibitors, primary screen, biochemical, luminescence, uHTS (AID 2599)
- Condition label: Recombinant SENP6 catalytic domain, aminoluciferin luminescence; at 10 µM
The whole screen tested about 330,000 compounds, of which about 5,800 (1.8%) were called active.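 The calls were made as follows: active = inhibition above about 50% at the single tested dose (limit read from the data); inactive = the rest.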 The sample holds actives, similar compounds and a random draw of the others, so the mix is not that of the screen.
Outcome codes: active, inactive

| Compound | Class name |
| --- | --- |
| O=C(O)c1ccc(N=NN2CCOCC2)cc1 | inactive |
| CC(C)CC(=O)N/C(N)=N/c1nc2ccccc2s1 | inactive |
| COc1cccc(N2CC(C(=O)NCc3n[nH]c(=O)c4ccccc34)CC2=O)c1 (configuration not stated) | inactive |
| O=C(O)c1cccc(N=NN2CCCCCC2)c1 | active |
| Cc1nc(N)c(Br)c(C)c1Br | inactive |
| CC(C)c1ccccc1OCC(O)CN(CC(O)COc1cccc2ccccc12)C(C)C (configuration not stated) | inactive |
| Oc1ccc(N=Cc2sc3ccccc3c2Cl)cc1 | active |
| CC1(C)OC(=O)C(=CNC(CO)C(=O)O)C(=O)O1 (configuration not stated) | inactive |
| N#C/C(=C(/O)Cc1cccc2ccccc12)c1nc2ccccc2s1 | inactive |
| COc1ccc(S(=O)(=O)NC(C)C(=O)N2CCCCCC2)cc1 (configuration not stated) | inactive |
| O=C(O)CS/C(=C\c1ccc(F)cc1)c1nc2ccccc2s1 | inactive |
| Cc1ccc(NC(=O)CN2CCc3ccccc3C2)cc1 | inactive |
| Cc1oc(-c2ccccc2Cl)[n+]([O-])c1C | inactive |
| CCOC(=O)C1(Cc2ccccc2C)CCCN(C(=O)CCc2c(C)noc2C)C1 (configuration not stated) | inactive |
| NC1=NN(c2cccc(C(=O)O)c2)C(=O)C1 | inactive |
| O=C(O)CC/C(=C\c1cc2c(cc1Br)OCO2)c1nc2ccccc2s1 | inactive |
| COc1ccc(-c2nc(-c3ccccc3)no2)c(OC)c1 | active |
| CCc1ccc(N(C(=O)c2csnn2)C(C(=O)NC2CCCCC2)c2cccnc2)cc1 (configuration not stated) | inactive |
| O=C(Nc1ccc(-c2ccc3nncn3n2)cc1)C1CCCCC1 | inactive |
| COCCn1nnnc1C(c1cc2ccc(OC)cc2[nH]c1=O)N1CCc2ccccc2C1 (configuration not stated) | active |
| O=C(NCCS(=O)(=O)NCc1ccc(Cl)cc1)c1ccccc1 | inactive |
| O=C(COc1ccccc1)N1CCN=C1SCc1cccc(F)c1 | inactive |
| Cc1ccc(S(=O)(=O)Nc2nc3ccccc3nc2N2CCc3ccccc3C2)cc1 | active |
| CCc1ccc(-c2cc(C(=O)NCc3ccco3)c3ccccc3n2)s1 | inactive |
| Cc1oc2c(c1C(=O)N1CCOCC1)C(=O)c1ccccc1C2=O | active |
| COc1cc2ccccc2cc1C(=O)N1CCOCC1 | inactive |
| Cc1ccc(S(=O)(=O)N2CCN(c3ncnc4ccccc34)CC2)cc1 | inactive |
| O=C(OCC(=O)N1CCCC1)c1ccco1 | inactive |
| COc1cc(/C=N/Nc2nc3ccccc3s2)ccc1O | active |
| CCN(CC)c1ccc(C(=O)OCC(=O)c2ccco2)cc1 | inactive |
| COc1ccc(OC)c(C(c2nnnn2C(C)(C)C)N2CCc3ccccc3C2)c1 (configuration not stated) | inactive |
| CC(=NCc1ccco1)C1=C(O)c2ccccc2C1=O | inactive |
| CCOC(=O)[C@H]1[C@H]2COc3cc(OC)ccc3[C@@H]2N2C(=O)CN(Cc3ccc(Cl)cc3)C(=O)[C@@]12C | inactive |
| CCc1ccc(C(=O)OCC(=O)NCC(F)(F)F)cc1 | inactive |
| CC(C(=O)NC1CCCCC1)N1C(=O)c2cccc3cccc1c23 (configuration not stated) | inactive |
| C/C(=N\NC(=O)CC(C)C)c1c(C(F)(F)F)[nH]n(-c2nc3ccccc3s2)c1=O | active |
| O=C(Nc1ncc([N+](=O)[O-])s1)C1COc2ccccc2O1 (configuration not stated) | active |
| CC1=CC(=C(C#N)c2nc3ccccc3s2)C=C(C)N1c1ccc(F)cc1F | active |
| COC(=O)C1=C(C)N(C)C(=S)NC1c1cc(OC)ccc1OC (configuration not stated) | inactive |
| O=C1CCC(=O)N1c1ccc(NCCc2ccccc2F)c([N+](=O)[O-])c1 | inactive |
| COc1ccc(OC)c2sc(NC(=O)C3COc4ccccc4O3)nc12 (configuration not stated) | inactive |
| COc1ccccc1OCc1nc2ccccc2s1 | active |
| CCC(C)Cn1c(O)cc2nn(-c3nc4ccccc4s3)c(=O)c-2c1C (configuration not stated) | inactive |
| CCNc1nc(SCCOc2ccccc2)nc(N(C)C)n1 | inactive |
| CCCCCCCCCOC1OC(CO)C(O)C(O)C1NC(C)=O (configuration not stated) | inactive |
| O=C(O)CC(c1ccccc1F)N1Cc2ccccc2C1=O (configuration not stated) | inactive |
| COc1ccccc1N1CC(O)=C(c2nc3ccccc3s2)C1=N | inactive |
